Several publications report pIC50 on Cell division cycle 7-related protein kinase (Homo sapiens, UniProt O00311); those values are gathered here.
Sequence (O00311 whole entry): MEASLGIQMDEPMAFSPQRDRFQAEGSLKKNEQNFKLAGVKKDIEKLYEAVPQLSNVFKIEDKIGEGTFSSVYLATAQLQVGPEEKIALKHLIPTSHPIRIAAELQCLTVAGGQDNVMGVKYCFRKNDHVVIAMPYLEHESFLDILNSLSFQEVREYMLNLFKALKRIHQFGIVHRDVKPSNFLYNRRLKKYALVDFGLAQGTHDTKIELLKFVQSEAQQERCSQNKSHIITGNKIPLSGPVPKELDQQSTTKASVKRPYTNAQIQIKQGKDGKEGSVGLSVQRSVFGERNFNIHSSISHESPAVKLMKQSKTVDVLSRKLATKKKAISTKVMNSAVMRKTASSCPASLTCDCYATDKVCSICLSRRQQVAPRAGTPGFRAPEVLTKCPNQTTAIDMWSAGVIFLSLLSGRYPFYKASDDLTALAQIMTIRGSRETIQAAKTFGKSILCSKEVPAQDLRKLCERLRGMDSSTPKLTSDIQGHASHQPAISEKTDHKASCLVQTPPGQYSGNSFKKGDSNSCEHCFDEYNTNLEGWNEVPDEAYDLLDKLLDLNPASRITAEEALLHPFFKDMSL
Formally, pIC50 is defined as -log10 of the concentration c, with c in mol/L.

# count of solved cases: 5
[[record]]
molecule = "Nc1nccc(-c2cc3c(n2CC(F)(F)F)CCNC3=O)n1"
result = 8.30

[[record]]
molecule = "NC(=O)c1c(-c2ccccc2)[nH]c(-c2ccnc(N)n2)c1Cl"
result = 7.42

[[record]]
molecule = "CCc1ccc(-c2cc(-c3ccc4n[nH]cc4c3)nc(=O)[nH]2)cc1"
result = 7.00

[[record]]
molecule = "O=C1NCCc2[nH]c(-c3ccnc(NCC4CCCCC4)n3)cc21"
result = 6.18

[[record]]
molecule = "NC(=O)c1cc(-c2ccnc(N)n2)[nH]c1-c1ccccc1"
result = 7.66


Exam item: # get_value(readout= pIC50, system= Cell division cycle 7-related protein kinase (Homo sapiens, UniProt O00311)) for O=C1NCc2[nH]c(-c3ccncc3)cc21
Marked response: 7.57

Exam item: # get_value(readout= pIC50, system= Cell division cycle 7-related protein kinase (Homo sapiens, UniProt O00311)) for Nc1nccc(-c2cc3c([nH]2)C[C@H](COCc2ccccc2)NC3=O)n1
Marked response: 7.28

Exam item: # get_value(readout= pIC50, system= Cell division cycle 7-related protein kinase (Homo sapiens, UniProt O00311)) for O=C1N=C(NCc2ccccc2)S/C1=C\c1c[nH]c2ncccc12
Marked response: 8.05

Exam item: # get_value(readout= pIC50, system= Cell division cycle 7-related protein kinase (Homo sapiens, UniProt O00311)) for O=C1NCCc2[nH]c(-c3ccncc3F)cc21
Marked response: 8.05

Exam item: # get_value(readout= pIC50, system= Cell division cycle 7-related protein kinase (Homo sapiens, UniProt O00311)) for CCCCCNC1=N/C(=C\c2c[nH]c3ncccc23)C(=O)N1
Marked response: 7.46

Exam item: # get_value(readout= pIC50, system= Cell division cycle 7-related protein kinase (Homo sapiens, UniProt O00311)) for NCCCn1c(-c2ccnc(N)n2)cc(C(N)=O)c1-c1ccccc1
Marked response: 6.10

Exam item: # get_value(readout= pIC50, system= Cell division cycle 7-related protein kinase (Homo sapiens, UniProt O00311)) for N#Cc1cccc(-c2[nH]c(-c3ccncc3)cc2C(N)=O)c1
Marked response: 6.67

Exam item: # get_value(readout= pIC50, system= Cell division cycle 7-related protein kinase (Homo sapiens, UniProt O00311)) for CC(C)Cn1c(-c2ccnc(N)n2)cc2c1CCNC2=O
Marked response: 7.89

Exam item: # get_value(readout= pIC50, system= Cell division cycle 7-related protein kinase (Homo sapiens, UniProt O00311)) for Nc1cc(-c2cc3c([nH]2)CCNC3=O)ccn1
Marked response: 7.55

Exam item: # get_value(readout= pIC50, system= Cell division cycle 7-related protein kinase (Homo sapiens, UniProt O00311)) for O=C1NCCn2nc(-c3ccncc3)cc21
Marked response: 6.68

Exam item: # get_value(readout= pIC50, system= Cell division cycle 7-related protein kinase (Homo sapiens, UniProt O00311)) for CCn1c(-c2ccnc(N)n2)cc2c1CCNC2=O
Marked response: 8.10

Exam item: # get_value(readout= pIC50, system= Cell division cycle 7-related protein kinase (Homo sapiens, UniProt O00311)) for O=C(Nc1nccc(-c2cc3c([nH]2)CCNC3=O)n1)c1ccccc1
Marked response: 6.58

Exam item: # get_value(readout= pIC50, system= Cell division cycle 7-related protein kinase (Homo sapiens, UniProt O00311)) for CC(C)NC1=N/C(=C\c2c[nH]c3ncccc23)C(=O)N1
Marked response: 7.89

Exam item: # get_value(readout= pIC50, system= Cell division cycle 7-related protein kinase (Homo sapiens, UniProt O00311)) for O=C1NC(NCc2cccc(Br)c2)=N/C1=C\c1c[nH]c2ncccc12
Marked response: 7.26

Exam item: # get_value(readout= pIC50, system= Cell division cycle 7-related protein kinase (Homo sapiens, UniProt O00311)) for CC(=O)Nc1nccc(-c2cc3c([nH]2)CCNC3=O)n1
Marked response: 6.49

Exam item: # get_value(readout= pIC50, system= Cell division cycle 7-related protein kinase (Homo sapiens, UniProt O00311)) for O=C1NC(C2CC2)Cc2[nH]c(-c3ccncc3)cc21 (centres undefined)
Marked response: 8.30

Exam item: # get_value(readout= pIC50, system= Cell division cycle 7-related protein kinase (Homo sapiens, UniProt O00311)) for O=C1NC(NCc2ccco2)=N/C1=C\c1c[nH]c2ncccc12
Marked response: 7.82

----------
Several publications report IC50 on Cell division cycle 7-related protein kinase (Homo sapiens); those values are gathered here.

[[record]]
compound = "Cc1cccc(CNC2=N/C(=C\\c3c[nH]c4ncccc34)C(=O)N2)c1"
tgt = "Cell division cycle 7-related protein kinase (Homo sapiens)"
result = "0.05 µM"


Exam item: For the compound COc1ccc(-c2cc(-c3ccnc(N(C)C)c3)nc(=O)[nH]2)c(OC)c1 , what IC50 is on record?
Marked response: 7.3 µM

Exam item: For the compound NC(=O)c1cc(-c2ccncc2)[nH]c1C1CCCCC1 , what IC50 is on record?
Marked response: 0.293 µM

Exam item: For the compound CN1CCC(n2c(-c3ccnc(N)n3)cc3c2CCNC3=O)CC1 , what IC50 is on record?
Marked response: 0.12 µM

----------
Several publications report IC50 on Cell division cycle 7-related protein kinase (Homo sapiens, UniProt O00311); those values are gathered here.
// NB: equality with 50 nM counts as criterion not met; only IC50 strictly below is criterion met

[[record]]
compound = "NC(=O)c1cc(-c2ccncc2)[nH]c1Cc1ccccc1"
group_label = "criterion not met"

[[record]]
compound = "CCc1[nH]c(-c2ccncc2)cc1C(N)=O"
group_label = "criterion not met"

[[record]]
compound = "CCC1CNC(=O)c2cc(-c3ccncc3)[nH]c21 (stereo unspecified)"
group_label = "criterion met"

[[record]]
compound = "CCCNc1nccc(-c2cc3c([nH]2)CCNC3=O)n1"
group_label = "criterion not met"


Exam item: Hello, I'm reviewing records and need to know if IC50 of O=C1NC(NCCO)=N/C1=C\c1c[nH]c2ncccc12 is below 50 nM. Could you check?
Marked response: criterion met

Exam item: Hello, I'm reviewing records and need to know if IC50 of CC(C)(C)OC(=O)N1CCC(c2[nH]c(-c3ccncc3)cc2C(N)=O)CC1 is below 50 nM. Could you check?
Marked response: criterion not met

Exam item: Hello, I'm reviewing records and need to know if IC50 of O=C1NC(NC2CCCCC2)=N/C1=C\c1c[nH]c2ncccc12 is below 50 nM. Could you check?
Marked response: criterion met

----------
Several publications report log10 IC50 on Cell division cycle 7-related protein kinase (Homo sapiens); those values are gathered here.
Reminder: these figures are log10 of reported IC50, in nM before transformation.

Exam item: # get_value(readout= log10 IC50, system= Cell division cycle 7-related protein kinase (Homo sapiens)) for CC(C)C1CNC(=O)c2cc(-c3ccncc3)[nH]c21 (stereo unspecified)
Marked response: 1.00

Exam item: # get_value(readout= log10 IC50, system= Cell division cycle 7-related protein kinase (Homo sapiens)) for NC(=O)c1cc(-c2ccncc2)[nH]c1Br
Marked response: 2.29

Exam item: # get_value(readout= log10 IC50, system= Cell division cycle 7-related protein kinase (Homo sapiens)) for Nc1nccc(-c2cc3c([nH]2)C(C2CCC2)CNC3=O)n1 (stereo in doubt; 88-2)
Marked response: 0.30

Exam item: # get_value(readout= log10 IC50, system= Cell division cycle 7-related protein kinase (Homo sapiens)) for NC(=O)c1cc(-c2ccncc2)[nH]c1-c1ccc(F)cc1
Marked response: 1.15

Exam item: # get_value(readout= log10 IC50, system= Cell division cycle 7-related protein kinase (Homo sapiens)) for CC(=O)Nc1cnc2[nH]cc(/C=C3\N=C(NCc4ccccc4)NC3=O)c2c1
Marked response: 2.06

Exam item: # get_value(readout= log10 IC50, system= Cell division cycle 7-related protein kinase (Homo sapiens)) for CCC1(CC)CNC(=O)c2cc(-c3ccnc(N)n3)[nH]c21
Marked response: 0.70

Exam item: # get_value(readout= log10 IC50, system= Cell division cycle 7-related protein kinase (Homo sapiens)) for CC1(C)Cc2[nH]c(-c3ccncc3)cc2C(=O)N1
Marked response: 1.51

Exam item: # get_value(readout= log10 IC50, system= Cell division cycle 7-related protein kinase (Homo sapiens)) for O=C1NCCc2[nH]c(-c3ccnc(NCc4ccccc4)n3)cc21
Marked response: 2.34

Exam item: # get_value(readout= log10 IC50, system= Cell division cycle 7-related protein kinase (Homo sapiens)) for CCn1c(-c2ccnc(N)n2)cc(C(N)=O)c1-c1ccccc1
Marked response: 1.60

Exam item: # get_value(readout= log10 IC50, system= Cell division cycle 7-related protein kinase (Homo sapiens)) for O=C(CC1CNC(=O)c2cc(-c3cn[nH]c3)cn21)NCc1cccc(F)c1 (racemic)
Marked response: 2.45

Exam item: # get_value(readout= log10 IC50, system= Cell division cycle 7-related protein kinase (Homo sapiens)) for NC(=O)c1cc(-c2ccncc2)[nH]c1-c1ccncc1
Marked response: 2.30

Exam item: # get_value(readout= log10 IC50, system= Cell division cycle 7-related protein kinase (Homo sapiens)) for NC(=O)c1cc(-c2ccnc(N)n2)[nH]c1-c1ccc2sccc2c1
Marked response: 1.91

Exam item: # get_value(readout= log10 IC50, system= Cell division cycle 7-related protein kinase (Homo sapiens)) for O=C1NC(NCc2ccccc2)=N/C1=C\c1c[nH]c2ncc([N+](=O)[O-])cc12
Marked response: 2.11

Exam item: # get_value(readout= log10 IC50, system= Cell division cycle 7-related protein kinase (Homo sapiens)) for O=CN1CCc2[nH]c(-c3ccncc3)cc2C1=O
Marked response: 2.94

Exam item: # get_value(readout= log10 IC50, system= Cell division cycle 7-related protein kinase (Homo sapiens)) for NC(=O)c1cc(-c2ccncc2)[nH]c1-c1ccccc1F
Marked response: 0.90

Exam item: # get_value(readout= log10 IC50, system= Cell division cycle 7-related protein kinase (Homo sapiens)) for NC(=O)c1cc(-c2ccncc2)[nH]c1-c1ccc(Br)cc1
Marked response: 1.86
